The binders listed here are annotated with their Kd.
Biological target: T1, PUF4 RNA-binding domain (Saccharomyces cerevisiae, UniProt P25339 537-888)
T1 sequence: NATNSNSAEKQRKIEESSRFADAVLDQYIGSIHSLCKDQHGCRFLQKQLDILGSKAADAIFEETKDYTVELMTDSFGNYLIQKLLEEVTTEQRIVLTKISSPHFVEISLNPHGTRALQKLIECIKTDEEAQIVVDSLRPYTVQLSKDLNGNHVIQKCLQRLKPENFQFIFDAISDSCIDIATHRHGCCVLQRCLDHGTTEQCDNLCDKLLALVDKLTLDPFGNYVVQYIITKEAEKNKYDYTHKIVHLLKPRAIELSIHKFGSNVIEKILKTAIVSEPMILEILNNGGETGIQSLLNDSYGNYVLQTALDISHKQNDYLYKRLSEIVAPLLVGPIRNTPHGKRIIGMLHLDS
Assay: Mg; RNA-MaP; 20 mM Na-HEPES pH 7.4, 30 mM KOAc, 0.75 mM MgCl2, 0.1% Tween-20, 5% glycerol, 0.1 mg/mL BSA, 2 mM DTT; 25 C; 0.0125-409.6 nM protein
Details: tags: N-His6-TEV cleaved; C-SNAP kept, Cy3B-labelled; label: tethered on chip by stalled RNA polymerase

{"columns": ["binder", "Kd"],
 "data": [
  ["Ib_S2_P4E.1_K4.1_C4.1_H4.1_[G2T]_[A4C]_A4.1_F4.1_T4.1 (ssRNA) RNA: UUUGAUUAAUAUGAUAUCGUUCUUUCUUUUCUAUUAUUCUUUCUCGAUAUCAUAUUAAUCUUU", "> 2300 nM"],
  ["Id_ii_S2_P4E.4_K4.3_C4.2_[C-2T]_[T-1A]_H4.3_A4.1_F4.1_T4.2_[G10A]_[T11A] (ssRNA) RNA: UUUGAUUAAUAUGAUAUCGUUCUUUCUUAACACUAUUAAAUUCUUUCUCGAUAUCAUAUUAAUCUUU", "> 2300 nM"]
]}

Task item: Please report the recorded Kd for ACAAACUCACACUAUUAAAACAAAC (ssRNA) [Id_ii_S3_P4E.4_K4.3_C4.2_[C-2T]_[T-1C]_H4.3_A4.1_F4.1_T4.2_[G10A]_[T11A]] .
Reply: > 2300 nM
